B1: library; numbered along this chain (parent)
chain: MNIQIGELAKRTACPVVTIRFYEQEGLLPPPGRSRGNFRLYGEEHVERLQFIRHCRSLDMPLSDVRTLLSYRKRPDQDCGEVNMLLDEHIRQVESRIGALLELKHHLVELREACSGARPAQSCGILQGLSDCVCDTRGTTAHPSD

Variants of: B1
Experiment: sfGFP reporter fluorescence (15 h) (µM FITC); higher = stronger transcriptional activation
Measurement conditions: library round: Round 0; ligand: 1 µM Pb
Label 1.0 for high-side sfGFP reporter fluorescence (at or above 0.06) and 0.0 for low-side sfGFP reporter fluorescence (below it).

Completed entries (count: 4):
# input Reported sfGFP reporter fluorescence reaches at least 0.06 for E112A ?
# output 1.0

# input Reported sfGFP reporter fluorescence reaches at least 0.06 for E109Q ?
# output 1.0

# input Reported sfGFP reporter fluorescence reaches at least 0.06 for V82G ?
# output 0.0

# input Reported sfGFP reporter fluorescence reaches at least 0.06 for S95A ?
# output 1.0

Continuing:
# input Reported sfGFP reporter fluorescence reaches at least 0.06 for V46T ?
# output 1.0

# input Reported sfGFP reporter fluorescence reaches at least 0.06 for E94D ?
# output 1.0

# input Reported sfGFP reporter fluorescence reaches at least 0.06 for E7T ?
# output 1.0
